Recorded % viability by entry
Tested on: M. mycetomatis strain mm55
Conditions: primary screen, metabolic activity vs growth control; 96 h, 2 µM; inhibitor
Screen size: about 5,300 compounds; about 130 (2.5%) showed an effect of 50% or more. Shown is part of a subset that was picked to be rich in strong results.
Please state the number and follow it with the unit.

{"columns": ["COMPOUND", "VAL"],
 "data": [
  ["C#C[C@]1(O)CC[C@H]2[C@@H]3CCC4=CC(=NO)CC[C@@H]4[C@H]3CC[C@@]21CC (mixture of isomers) [ONC0000953, norgestimate metabolite norelgestromin]", "67.65%"],
  ["O=C1Nc2c(ccc(Cl)c2Cl)C1=NO", "65.12%"],
  ["O=C(Oc1cccc2cccnc12)c1ccccc1", "75.23%"],
  ["Nc1nc2c(ncn2[C@@H]2O[C@H](CO)[C@@H](O)[C@H]2O)c(=S)[nH]1", "121.6%"],
  ["Cc1c(S(=O)(=O)O)oc2c1C(=O)C(=O)c1c-2ccc2c1CCCC2(C)C [ONC0003377, sodiumtanshinoneiiasulfonate]", "55.5%"]
]}

## Input What value of % viability on M. mycetomatis strain mm55 does `C[C@H]1COC2=C1C(=O)C(=O)c1c2ccc2c1CCCC2(C)C` have?
## Output 49.66%

## Input Request: % viability, test system M. mycetomatis strain mm55, entry `O=C1CN(/N=C/c2ccc(-c3ccc([N+](=O)[O-])cc3)o2)C(O)=N1`
## Output 104.9%

## Input Value wanted: % viability (M. mycetomatis strain mm55) of entry Cc1ncc(C[n+]2csc(CCO[P@](=O)(O)OP(=O)(O)O)c2C)c(N)n1 [ONC0002796, thiamine pyrophosphate chloride]
## Output 94.34%

## Input GET /values?readout=% viability&system=M. mycetomatis strain mm55&item= CC[C@H](NC(C)C)[C@H](O)c1ccc(O)c2[nH]c(=O)ccc12 (racemic)
## Output 72.96%

## Input State its % viability on M. mycetomatis strain mm55: `Cc1coc2c1C(=O)C(=O)c1c-2ccc2c1CCCC2(C)C`
## Output 103.2%

----------
Tested on: M. mycetomatis strain mm55
Settings: primary screen, metabolic activity vs growth control; 96 h, 2 µM; inhibitor
Counter-ions that a name gives are not always drawn. Among all 5,300 compounds or so, about 130 (2.5%) showed an effect of 50% or more. Only a selection was taken, and strong results are over-represented in it overall.
ENDPOINT_NAME: % viability (%)
The response must be a number in % with no trailing unit.

{"columns": ["COMPOUND", "% viability [%]"],
 "data": [
  ["CCOC(=O)c1c2c3c(cccc3[nH]c1=O)C(=O)c1ccccc1-2", 43.7],
  ["COc1ccc2c(NC(=O)Nc3cccc(C(F)(F)F)n3)ccnc2c1", 76.76],
  ["O=C(Nc1nc(-c2cc(Cl)cs2)c(N2CCN(C3CCCCC3)CC2)s1)c1cnc(N2CCC(C(=O)O)CC2)c(Cl)c1", 50.97],
  ["O=C(NC1CCNCC1)[C@@H]1CC[C@@H]2CN1C(=O)N2OS(=O)(=O)O", 62.24],
  ["[H]/N=C(/N)N/C(=N/[H])NCCc1ccccc1 [ONC0000619, phenformin hydrochloride]", 104.4]
]}

## Input Which % viability is listed for CC(=O)OC[C@H](N)C(=O)O.Cl [ONC0000420, oacetyllserine hcl] ?
## Output 77.43

## Input Need % viability of CC(=O)O[C@]1(C(C)=O)CCC2C3C[C@H](C)C4=CC(=O)CC[C@]4(C)C3CC[C@@]21C (some centres unmarked) [ONC0000456, medroxyprogesterone acetate] , thanks.
## Output 83.76

## Input Requested field: % viability. Item: `CC1(C)Oc2ccc(C#N)cc2[C@@H](OC2=CC(=O)CC2)[C@@H]1O`
## Output 40.31

## Input Request the reported % viability associated with `O=C1c2ccccc2-c2c(NCCc3ccccc3)c(=O)[nH]c3cccc1c23`
## Output 84.69

## Input May I ask what % viability has been recorded for Nc1ncnc2c1ncn2[C@@H]1O[C@H](CO)C[C@H]1O [ONC0003004, cordycepin] ?
## Output 108

## Input Which % viability value belongs to `C/C(=N\NC(=N)N)c1cc(NC(=O)CCCCCCCCC(=O)Nc2cc(/C(C)=N/NC(=N)N)cc(/C(C)=N/NC(=N)N)c2)cc(/C(C)=N/NC(=N)N)c1` ?
## Output 78.92

## Input Endpoint output: % viability of CCC(=O)O[C@@H]1CC(=O)O[C@H](C)C/C=C/C=C/[C@H](OC(C)=O)[C@H](C)C[C@H](CC=O)[C@H](O[C@@H]2O[C@H](C)[C@@H](O[C@H]3C[C@@](C)(OC(C)=O)[C@@H](OC(=O)CC)[C@H](C)O3)[C@H](N(C)C)[C@H]2O)[C@H]1OC [ONC0000277, midecamycin acetate] . Value?
## Output 81.75

## Input # % viability lookup, item `O=C(Nc1ccc(C(O)(C(F)(F)F)C(F)(F)F)cc1)c1ccc(C(F)(F)F)cc1`
## Output 46.34

## Input Which % viability value is on record for `NS(=O)(=O)NCCNc1nonc1C(=NO)Nc1ccc(F)c(Br)c1` ?
## Output 130.3

## Input Reported % viability, compound O=C(O)CC(O)(CC(=O)O)C(=O)O.[Li].[Li].[Li] [ONC0004255, lithium citrate hydrate] : ____
## Output 60.67

## Input Bench note: what % viability did Cc1c[nH]c(-c2cnc(NCCNc3ccc(C#N)cn3)nc2-c2ccc(Cl)cc2Cl)n1 [ONC0004531, chir99021 ct99021 hcl] show?
## Output 57.04

## Input Give the measured % viability of `CC(=O)[C@H]1CC[C@H]2[C@@H]3CC=C4C[C@@H](O)CC[C@]4(C)[C@H]3CC[C@]12C` .
## Output 77.25

## Input Look at this compound and give its reported % viability. C[S+]([O-])CCCCN=C=S (centres unmarked)
## Output 49.62

## Input Requested field: % viability. Item: CCC(C/C=C/c1ccccc1)(c1ccccc1)N(C)CC1CC1 (centres unmarked)
## Output 61.21

## Input Fill blank: measured % viability of the compound `CC(=O)OCC1=C(C(=O)O)N2C(=O)[C@@H](N)[C@H]2SC1` is ____.
## Output 52.68

## Input Query: % viability; subject: O=C(CCCS)NC1CCN(C(=O)COc2ccc(Cl)cc2Cl)CC1 [ONC0005166, krasg12c inhibitor 6]
## Output 98.75

## Input Would you mind telling me what % viability value was observed for CC(C)(C)c1cc(C(C)(C)C)c2c(c1)C(O)(C(F)(F)F)C(=O)O2 (centres unmarked) ?
## Output 123.7

## Input Dear colleague, I am looking for the recorded % viability of the following compound: CC(C)C[C@@H](N)C(=O)N[C@H]1C(=O)N[C@@H](CC(N)=O)C(=O)N[C@H]2C(=O)N[C@H]3C(=O)N[C@H](C(=O)N[C@H](C(=O)O)c4cc(O)cc(O)c4-c4cc3ccc4O)[C@H](O)c3ccc(c(Cl)c3)Oc3cc2cc(c3O[C@@H]2O[C@H](CO)[C@@H](O)[C@H](O)[C@H]2O[C@H]2C[C@](C)(N)[C@H](O)[C@H](C)O2)Oc2ccc(cc2Cl)[C@H]1O [ONC0002123, norvancomycin hydrochloride]
## Output 86.02

## Input Which % viability is reported for this compound? `CC(=O)N(O)[C@@H]1c2cc(C#N)ccc2OC(C)(C)[C@H]1O`
## Output 123.9

## Input Look up % viability: Oc1cc2c(cc1O)C(Cc1cccc3ccccc13)NCC2 (centres unmarked)
## Output 88.3

## Input Need % viability of `CC(=O)Nc1ccc(C(=O)NC(C)(C)C)cc1` , thanks.
## Output 98.46

----------
Tested on: M. mycetomatis strain mm55
Details: primary screen, metabolic activity vs growth control; 96 h, 2 µM; inhibitor
About 130 (2.5%) of roughly 5,300 compounds showed an effect of 50% or more. Only a selection was taken, and strong results are over-represented in it overall.
ENDPOINT_NAME: % viability

Solved cases (3 shown):
{"columns": ["COMPOUND", "% viability"],
 "data": [
  ["COc1ccc(NS(=O)(=O)c2ccc(N=Nc3ccc(O)c(C(=O)O)c3)cc2)nn1", "47.95%"],
  ["O=C(O)c1ccccc1Nc1cccc(OCc2ccc3ccccc3n2)c1", "39.31%"],
  ["O=C(O)c1cc(/N=N/c2ccc(S(=O)(=O)Nc3ccccn3)cc2)ccc1O", "109.1%"]
]}

## Input Dear colleague, I am looking for the recorded % viability of the following compound: `COc1ccc(NS(=O)(=O)c2ccc(N)cc2)nn1`
## Output 113.3%

## Input // % viability lookup, key: CC(=O)O[C@@H]1CC[C@@]2(C)C(CC[C@]3(C)C2C(=O)C=C2[C@@H]4[C@@H](C)[C@H](C)CC[C@]4(C)CC[C@]23C)[C@@]1(C)C(=O)O (stereo partly shown)
## Output 70.79%

## Input Can you share its % viability? I mean this compound: `O=C(O)[C@@H](c1ccc(OCc2ccc3ccccc3n2)cc1)C1CCCC1`
## Output 76.74%

## Input // lookup % viability for `N[C@H](Cc1c[nH]cn1)C(=O)O`
## Output 75.44%
